The reported numbers originate from ChEMBL document CHEMBL1909046.

- MEASURED_TARGET: Melanocortin receptor 5 (Homo sapiens, UniProt P33032); further: in other assays of this panel Not Active means under 50% inhibition at 10 µM
- Sequence (P33032 whole entry): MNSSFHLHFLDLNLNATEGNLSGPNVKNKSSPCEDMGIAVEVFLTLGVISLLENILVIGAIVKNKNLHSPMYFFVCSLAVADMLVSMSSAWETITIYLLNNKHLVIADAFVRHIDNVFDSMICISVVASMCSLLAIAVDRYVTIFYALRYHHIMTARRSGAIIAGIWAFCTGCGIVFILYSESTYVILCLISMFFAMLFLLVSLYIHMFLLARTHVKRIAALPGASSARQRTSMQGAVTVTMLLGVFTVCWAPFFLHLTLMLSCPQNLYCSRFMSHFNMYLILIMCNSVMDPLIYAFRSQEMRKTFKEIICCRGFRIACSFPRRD
- Format: cell membranes, HEK293, Membrane
- CONDITION_CONTEXT: hek293
MEASUREMENT_LABEL: IC50

Example results:
COMPOUND	MEASUREMENT_LABEL	EXPERIMENTAL_RESULT
CN1C2CCCC1CC(NC(=O)c1nn(C)c3ccccc13)C2 (configuration not stated)	IC50	Not Active
CC(C)(CO)C(O)C(=O)NCCCO (configuration not stated)	IC50	Not Active
CC[C@H](C)C(=O)O[C@H]1C[C@H](O)C=C2C=C[C@H](C)[C@H](CC[C@@H](O)C[C@@H](O)CC(=O)O)[C@H]21	IC50	Not Active
NC[C@@H]1O[C@H](O[C@H]2[C@@H](O)[C@H](O[C@@H]3[C@@H](O)[C@H](N)C[C@H](N)[C@H]3O[C@H]3O[C@H](CN)[C@@H](O)[C@H](O)[C@H]3N)O[C@@H]2CO)[C@H](N)[C@@H](O)[C@@H]1O	IC50	Not Active

**Q:** Lab note: Melanocortin receptor 5 (Homo sapiens, UniProt P33032) assay, enter IC50 for COc1ccc(Cc2nccc3cc(OC)c(OC)cc23)cc1OC here
**A:** Not Active

**Q:** Lab note: Melanocortin receptor 5 (Homo sapiens, UniProt P33032) assay, enter IC50 for O=C(O)C(Cl)(Cl)Cl here
**A:** Not Active

**Q:** Lab note: Melanocortin receptor 5 (Homo sapiens, UniProt P33032) assay, enter IC50 for CC(=O)O[C@]1(C(C)=O)CC[C@H]2[C@@H]3C=C(Cl)C4=CC(=O)[C@@H]5C[C@@H]5[C@]4(C)[C@H]3CC[C@@]21C [CYPROTERONE ACETATE] here
**A:** Not Active

**Q:** Lab note: Melanocortin receptor 5 (Homo sapiens, UniProt P33032) assay, enter IC50 for NC[C@H]1O[C@H](O[C@H]2[C@H](O)[C@@H](O[C@H]3O[C@H](CO)[C@@H](O)[C@H](N)[C@H]3O)[C@H](N)C[C@@H]2N)[C@H](N)C[C@@H]1O here
**A:** Not Active
